# measurement.target: T1, NativeRPtag(large)_with_Tags_and_Cys (Thermoanaerobacter tengcongensis)
# T1 construct: Unlabeled in anisotropy assays; coupled through the engineered N-terminal Cys to SulfoLink agarose or maleimide plates in column, pull-down and ELISA assays
# T1 chain: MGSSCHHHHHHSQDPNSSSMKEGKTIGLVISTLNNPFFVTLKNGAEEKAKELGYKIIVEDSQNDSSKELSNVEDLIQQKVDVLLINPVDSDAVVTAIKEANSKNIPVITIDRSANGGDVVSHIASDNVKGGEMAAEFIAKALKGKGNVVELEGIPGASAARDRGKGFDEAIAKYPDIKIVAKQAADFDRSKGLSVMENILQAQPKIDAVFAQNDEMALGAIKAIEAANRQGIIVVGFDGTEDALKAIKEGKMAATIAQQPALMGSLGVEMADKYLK
# method.notes: fluorescence anisotropy; EtOH (20%)
No end group written: not given here. *: point of attachment. RhodamineB = CCN(CC)c1ccc2c(-c3ccccc3C(=O)*)c3ccc(=[N+](CC)CC)cc-3oc2c1
pKd for assorted binders
API: returns pKd as number; meaning -log10 of concentration in mol/L.

RhodamineB-GEKIPNFIPAELKLITKENVQ (Synthetic peptide) [native RPtag(small)] : 9.77

Here's the next entry for you.
q: Given the entry RhodamineB-KIANFIPAELKLITKANVQ (also: also used unlabeled as competitor, Rhodamine labeled in the Kd assays; also called RPtag(small) (tight)) [RPtag(small) Nd2, p5a, e18a] , report its measured pKd.
a: 10.00

Where these numbers come from: patent US20200102347A1
